B1: Far upstream element-binding protein 1, residues 184 to 257; numbered along this chain, Q96AE4 (parent)
chain: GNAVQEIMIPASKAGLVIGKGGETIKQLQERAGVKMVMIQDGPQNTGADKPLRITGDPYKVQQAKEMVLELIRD

# Variants of: B1
# assay_summary: abundance fitness (aPCA) (normalised: wild type 0, dead -1); higher = more abundant; growth selection in yeast, the domain comes from the species named
# measurement_context: Homo sapiens
measurement_type: abundance fitness

Take a look at these entries with their results.
K20T -0.035
T46G -0.024
G22T -0.29
I72H -0.524

What measured abundance fitness goes with "G33I" ?
-1.12

# iterate: "L52G"
-0.886

# iterate: "L16I"
-0.048

# iterate: "L71Y"
-0.225

# iterate: "V34L"
-0.567

# iterate: "K35G"
-0.071

# iterate: "A48W"
-0.124

# iterate: "R53H"
-0.046

# iterate: "Q27W"
-0.05

# iterate: "G19K"
-0.445

# iterate: "D41T"
-0.052

# iterate: "D49R"
-0.129

# iterate: "K50L"
0.019

# iterate: "A64N"
-0.772

# iterate: "D74S"
-0.111

# iterate: "A14C"
0.031

# iterate: "E66M"
-0.08
